Test system: Escherichia coli
Assay Name: Antimicrobial activity against Escherichia coli isolate 157 expressing beta-lactamase KPC2, CTX-M-15, TEM and PFGE cluster 3 isolated from urine of patient by agar dilution method
Format: functional
Condition Parameters: isolate 157, Urine
Reported Property: MIC (µg/mL)
Express your answer in µg/mL, writing the number without its unit.

Example results:
Compound: C[C@@H](O)[C@H]1C(=O)N2C(C(=O)O)=C(S[C@@H]3CN[C@H](C(=O)N(C)C)C3)[C@H](C)[C@H]12 [MEROPENEM]
Reported Property: MIC
Output Unit: µg/mL
Data Value: 4
--
Compound: C[C@@H](O)[C@H]1C(=O)N2C(C(=O)O)=C(S[C@@H]3CN[C@H](C(=O)Nc4cccc(C(=O)O)c4)C3)[C@H](C)[C@H]12
Reported Property: MIC
Output Unit: µg/mL
Data Value: 8
--
Compound: C[C@@H](O)[C@H]1C(=O)N2C(C(=O)O)=C(SCCNC=N)C[C@H]12 [IMIPENEM ANHYDROUS]
Reported Property: MIC
Output Unit: µg/mL
Data Value: 8

Query compound follows.
### Prompt Give recorded MIC. C[C@@H](O)[C@H]1C(=O)N2C(C(=O)O)=C(S[C@@H]3CN[C@H](CNS(N)(=O)=O)C3)[C@H](C)[C@H]12 [DORIPENEM]
### Response 2

* * *

Tested on: Escherichia coli
Assay Name: Antimicrobial activity against Escherichia coli isolate 157T expressing beta-lactamase KPC2 and PFGE cluster 3 isolated from urine of patient by agar dilution method
Assay type: functional
Reported Property: MIC (µg/mL)
Express your answer in µg/mL, writing the number without its unit.

Example results:
Molecule: C[C@@H](O)[C@H]1C(=O)N2C(C(=O)O)=C(SCCNC=N)C[C@H]12 [IMIPENEM ANHYDROUS]
Target System: Escherichia coli
MIC [µg/mL]: 2
//
Molecule: C[C@@H](O)[C@H]1C(=O)N2C(C(=O)O)=C(S[C@@H]3CN[C@H](C(=O)Nc4cccc(C(=O)O)c4)C3)[C@H](C)[C@H]12
Target System: Escherichia coli
MIC [µg/mL]: 4

### Prompt Give recorded MIC. C[C@@H](O)[C@H]1C(=O)N2C(C(=O)O)=C(S[C@@H]3CN[C@H](CNS(N)(=O)=O)C3)[C@H](C)[C@H]12
### Response 1

### Prompt Give recorded MIC. C[C@@H](O)[C@H]1C(=O)N2C(C(=O)O)=C(S[C@@H]3CN[C@H](C(=O)N(C)C)C3)[C@H](C)[C@H]12
### Response 1

* * *

Test system: Escherichia coli
Assay Name: Antimicrobial activity against Escherichia coli isolate 329T expressing beta-lactamase KPC2 and PFGE cluster 2 isolated from blood of patient by agar dilution method
Assay type: functional
The entries below are paired with their reported MIC.
Express your answer in µg/mL, writing the number without its unit.

### Prompt Give recorded MIC. C[C@@H](O)[C@H]1C(=O)N2C(C(=O)O)=C(S[C@@H]3CN[C@H](C(=O)N(C)C)C3)[C@H](C)[C@H]12
### Response 1

### Prompt Give recorded MIC. C[C@@H](O)[C@H]1C(=O)N2C(C(=O)O)=C(S[C@@H]3CN[C@H](CNS(N)(=O)=O)C3)[C@H](C)[C@H]12
### Response 1

### Prompt Give recorded MIC. C[C@@H](O)[C@H]1C(=O)N2C(C(=O)O)=C(S[C@@H]3CN[C@H](C(=O)Nc4cccc(C(=O)O)c4)C3)[C@H](C)[C@H]12
### Response 4

### Prompt Give recorded MIC. C[C@@H](O)[C@H]1C(=O)N2C(C(=O)O)=C(SCCNC=N)C[C@H]12 [IMIPENEM ANHYDROUS]
### Response 2

* * *

System: Escherichia coli
Assay Name: Antimicrobial activity against Escherichia coli DH10B by Etest
Type: functional
Condition Parameters: K-12 DH10B
Reported Property: MIC (µg/mL)
Express your answer in µg/mL, writing the number without its unit.

Example results:
Molecule: C[C@@H](O)[C@H]1C(=O)N2C(C(=O)O)=C(S[C@@H]3CN[C@H](C(=O)N(C)C)C3)[C@H](C)[C@H]12
MIC, µg/mL: 0.25

Molecule: C[C@@H](O)[C@H]1C(=O)N2C(C(=O)O)=C(S[C@@H]3CN[C@H](C(=O)Nc4cccc(C(=O)O)c4)C3)[C@H](C)[C@H]12
MIC, µg/mL: 0.023

### Prompt Give recorded MIC. C[C@@H](O)[C@H]1C(=O)N2C(C(=O)O)=C(SCCNC=N)C[C@H]12 [IMIPENEM ANHYDROUS]
### Response 0.25

### Prompt Give recorded MIC. CN(C)c1cc(NC(=O)CNC(C)(C)C)c(O)c2c1C[C@H]1C[C@H]3[C@H](N(C)C)C(O)=C(C(N)=O)C(=O)[C@@]3(O)C(O)=C1C2=O
### Response 0.125

* * *

Tested on: Escherichia coli
Assay Name: Antimicrobial activity against Escherichia coli isolate 543T expressing beta-lactamase KPC2 and PFGE cluster 4 isolated from synovial fluid of patient by vitek-2 method
Assay type: functional
The entries below are paired with their reported MIC.

Example results:
Compound: C[C@H]1COc2c(N3CCN(C)CC3)c(F)cc3c(=O)c(C(=O)O)cn1c23.C[C@H]1COc2c(N3CCN(C)CC3)c(F)cc3c(=O)c(C(=O)O)cn1c23.O [LEVOFLOXACIN]
MIC: < 0.25 µg/mL
--
Compound: NCC[C@H](O)C(=O)N[C@@H]1C[C@H](N)[C@@H](O[C@H]2O[C@H](CN)[C@@H](O)[C@H](O)[C@H]2O)[C@H](O)[C@H]1O[C@H]1O[C@H](CO)[C@@H](O)[C@H](N)[C@H]1O [AMIKACIN]
MIC: 16 µg/mL
--
Compound: CC(C)(O/N=C(\C(=O)N[C@@H]1C(=O)N2C(C(=O)[O-])=C(C[n+]3ccccc3)CS[C@H]12)c1csc(N)n1)C(=O)O [CEFTAZIDIME]
MIC: 16 µg/mL

Query compound follows.
### Prompt Give recorded MIC. CO/N=C(\C(=O)N[C@@H]1C(=O)N2C(C(=O)O)=C(CSc3nc(=O)c(O)nn3C)CS[C@H]12)c1csc(N)n1 [CEFTRIAXONE]
### Response 16 µg/mL

* * *

System: Escherichia coli
Assay Name: Antimicrobial activity against Escherichia coli isolate 543 expressing beta-lactamase KPC2, CTX-M-15, TEM and PFGE cluster 4 isolated from synovial fluid of patient by vitek-2 method
Type: functional
The entries below are paired with their reported MIC.

Example results:
Compound: CC(C)(O/N=C(\C(=O)N[C@@H]1C(=O)N2C(C(=O)[O-])=C(C[n+]3ccccc3)CS[C@H]12)c1csc(N)n1)C(=O)O [CEFTAZIDIME]
Target System: Escherichia coli
MIC: 16 µg/mL
//
Compound: NCC[C@H](O)C(=O)N[C@@H]1C[C@H](N)[C@@H](O[C@H]2O[C@H](CN)[C@@H](O)[C@H](O)[C@H]2O)[C@H](O)[C@H]1O[C@H]1O[C@H](CO)[C@@H](O)[C@H](N)[C@H]1O [AMIKACIN]
Target System: Escherichia coli
MIC: > 64 µg/mL

### Prompt Give recorded MIC. C[C@H]1COc2c(N3CCN(C)CC3)c(F)cc3c(=O)c(C(=O)O)cn1c23.C[C@H]1COc2c(N3CCN(C)CC3)c(F)cc3c(=O)c(C(=O)O)cn1c23.O [LEVOFLOXACIN]
### Response > 8 µg/mL

### Prompt Give recorded MIC. CO/N=C(\C(=O)N[C@@H]1C(=O)N2C(C(=O)O)=C(CSc3nc(=O)c(O)nn3C)CS[C@H]12)c1csc(N)n1 [CEFTRIAXONE]
### Response > 64 µg/mL

These data points were gathered from ChEMBL document CHEMBL1671686.
